# System: P. aeruginosa VR-143/97 (VIM-1)
# CONDITION_SET: MHB, 5 × 10^5 CFU/mL, 18 h, 35 °C, triplicate
Non-standard residues stand in square brackets, D forms with d. Residues, ends and D or L forms follow the SMILES beside them. *: point of attachment. Leu(ol) = CC(C)C[C@H](N)CO; Octanoyl = CCCCCCCC(=O)*; Aib = CC(C)(N)C(=O)O
REPORTED_PROPERTY: MBC P. aeruginosa VR-143/97 (VIM-1) (µg/mL)

# COMPOUND, MEASURED_TARGET, UNIT_SYMBOL, MEASURED
data = [
    ("CCCCCCCC(=O)NC(C)(C)C(=O)NCC(=O)N[C@@H](CC(C)C)C(=O)NC(C)(C)C(=O)N[C@@H](CCCCN)C(=O)N[C@@H](CCCCN)C(=O)N[C@@H](CC(C)C)C(=O)NC(C)(C)C(=O)NCC(=O)N[C@H](C(=O)N[C@H](CO)CC(C)C)[C@@H](C)CC [Peptide 4]", "P. aeruginosa VR-143/97 (VIM-1)", "µg/mL", 32),
    ("CCCCCCCC(=O)NC(C)(C)C(=O)N[C@@H](CCCCN)C(=O)N[C@@H](CC(C)C)C(=O)NC(C)(C)C(=O)N[C@@H](CCCCN)C(=O)NCC(=O)N[C@@H](CC(C)C)C(=O)NC(C)(C)C(=O)NCC(=O)N[C@H](C(=O)N[C@H](CO)CC(C)C)[C@@H](C)CC [Peptide 1] (Octanoyl-[Aib]KL[Aib]KGL[Aib]GI[Leu(ol)])", "P. aeruginosa VR-143/97 (VIM-1)", "µg/mL", 32),
    ("CCCCCCCC(=O)NC(C)(C)C(=O)N[C@@H](CCCCN)C(=O)N[C@@H](CC(C)C)C(=O)NC(C)(C)C(=O)N[C@@H](CCCCN)C(=O)N[C@@H](CCCCN)C(=O)N[C@@H](CC(C)C)C(=O)NC(C)(C)C(=O)N[C@@H](CCCCN)C(=O)N[C@H](C(=O)N[C@H](CO)CC(C)C)[C@@H](C)CC [Peptide 7] (Octanoyl-[Aib]KL[Aib]KKL[Aib]KI[Leu(ol)])", "P. aeruginosa VR-143/97 (VIM-1)", "µg/mL", 8),
    ("CCCCCCCC(=O)NC(C)(C)C(=O)N[C@@H](CCCCN)C(=O)N[C@@H](CC(C)C)C(=O)NC(C)(C)C(=O)N[C@@H](CCCCN)C(=O)N[C@@H](CCCCN)C(=O)N[C@@H](CC(C)C)C(=O)NC(C)(C)C(=O)NCC(=O)N[C@H](C(=O)N[C@@H](CC(C)C)C(N)=O)[C@@H](C)CC [Peptide 11] (Octanoyl-[Aib]KL[Aib]KKL[Aib]GIL-NH2)", "P. aeruginosa VR-143/97 (VIM-1)", "µg/mL", 8),
]
